Reference source: PubChem BioAssay (EPA / NIEHS)

Assay: ATG_DR4_LXR_CIS: Attagene CIS-FACTORIAL HepG2 Assay for human Liver X Receptor (LXR), DR4 submotif (AID 2282929)
Details: HepG2 Attagene DR4 cis-reporter, mRNA transcription; actives raise or lower the signal
Activity calls are given as the source filed them. The calls were made as follows: active = hit-call score of the fitted dose curve at least 0.9, where 1 is the maximum; inactive = score below 0.9.
Lab note: assign the record to one of active, inactive

Here's what some known entries look like.
CC(C)=CCOC(=O)c1ccccc1; inactive
O=C(Oc1ccccc1)c1ccccc1; inactive
Cc1ccccc1S(N)(=O)=O; inactive
CCCC[N+]1(C)CCCC1; inactive

Which result was noted for this compound in the test: Cc1ccccc1S(=O)(=O)O inactive

Which result was noted for this compound in the test: CCCCCCCCCCCCCC inactive

----------
Test: CCTE_Shafer_MEA_dev_burst_rate: CCTE's Neural Network Formation Assay for Burst Rate, Shafer Lab (AID 2284042)
Active and inactive are the calls of the source. The calls were made as follows: active = hit-call score of the fitted dose curve at least 0.9, where 1 is the maximum; inactive = score below 0.9.
Lab note: assign the record to one of 1 (yes) (active), 0 (no) (inactive)

NC(N)=Nc1nc(CSCCC(N)=NS(N)(=O)=O)cs1; 0 (no)

Which result was noted for this molecule in the test: CC1(C)S[C@@H]2[C@H](NC(=O)[C@H](N)c3ccccc3)C(=O)N2[C@H]1C(=O)O 0 (no)

Which result was noted for this molecule in the test: c1ccc2cc3c4ccccc4c4ccccc4c3cc2c1 0 (no)

Which result was noted for this molecule in the test: c1cc2ccc3ccc4ccc5cccc6c(c1)c2c3c4c56 0 (no)

Which result was noted for this molecule in the test: C[C@@H]1C[C@H]2[C@@H]3CCC4=CC(=O)C=C[C@]4(C)[C@@]3(F)[C@@H](O)C[C@]2(C)[C@@]1(O)C(=O)CO 0 (no)

----------
Biological target: mouse Estrogen Receptor alpha (Era), Esr1 (gene 13982)
Test: NVS_NR_mERa: NovaScreen (NVS) Nuclear Receptor Binding Assay for mouse Estrogen Receptor alpha (Era) (AID 2283378);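 also: hit means loss of bound radioligand signal relative to DMSO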
Inconclusive results are not listed. Calls of active or inactive are those of the source. How the source made its calls: active means hit-call score of the fitted dose curve at least 0.9, where 1 is the maximum; inconclusive means response in the unintended direction; inactive means score below 0.9.
Lab note: assign the record to one of active, inactive

Here's what some known entries look like.
C=CC(C)(CCC=C(C)C)OC(=O)c1ccccc1 (stereo not drawn); inactive
Cc1cc2nc3c(=O)[nH]c(=O)nc-3n(C[C@H](O)[C@H](O)[C@H](O)CO)c2cc1C; inactive
CNC(=O)Nc1ccc(Cl)c(Cl)c1; inactive

Which result was noted for this compound in the test: Cc1oc(C)c(C(=O)Nc2ccccc2)c1C inactive

Which result was noted for this compound in the test: COc1ccc(COC=O)cc1 inactive

Which result was noted for this compound in the test: CC(C)(C)C(=O)C(=O)O inactive

Which result was noted for this compound in the test: Nc1nc(N)c2nc(-c3ccccc3)c(N)nc2n1 inactive

Which result was noted for this compound in the test: Oc1ccc(Oc2ccccc2)cc1 active

----------
Experiment: BSK_3C_Vis: BioMAP Diversity Plus: 3C Assay for Morphology Visualization (AID 2283025);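 also: fitted both ways so gain or loss versus DMSO counts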;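 as to AC50: light microscopy image of cell morphology used as background control; cells imaged 24 h after dosing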
Conditions: primary human endothelial cells (HUVEC)
The source made the active and inactive calls. Rule for the calls: active = hit-call score of the fitted dose curve at least 0.9, where 1 is the maximum; inactive = score below 0.9.
measurement.kind: AC50

CCCCCCCCCCC1CO1 (stereo not drawn); 37.8 µM (active)
COC(=O)/C=C\C(=O)OC; inactive
Cc1cccnc1; inactive

----------
Experiment: TOX21_p53_BLA_p2_viability: Viability Assessment in the Tox21 HCT-116 p53 Agonism Beta-lactamase Assay, Phase 2 (AID 2283591);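 also: compound exposure lasted 16 h at 37 °C; actives lower the ATP signal meaning cytotoxicity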
Inconclusive results are not listed. Active and inactive are the calls of the source. Rule for the calls: active = hit-call score of the fitted dose curve at least 0.9, where 1 is the maximum; inconclusive = response in the unintended direction; inactive = score below 0.9.
Lab note: assign the record to one of active, inactive

Here's what some known entries look like.
CCOc1cc(OCC)c(C(C)=O)cc1OCC; inactive
O=C1OC(=O)C2CCCCC12 (stereo not drawn); inactive
CC(C)(C)NC[C@H](O)COc1cccc2c1CCCC2=O; inactive
CC(=C\c1ccccc1)/C=C1/SC(=S)N(CC(=O)O)C1=O; inactive

Which result was noted for this compound in the test: C=CCN1C(=O)C(CC(C)C)NC1=S (stereo not drawn) inactive

----------
Read-out: E-selectin (Homo sapiens)
Assay: BSK_SAg_Eselectin: BioMAP Diversity Plus: SAg Assay for Eselectin Biomarker Activity (AID 2283091)
Conditions: primary human HUVEC with PBMC; actives raise or lower the signal
Procedure: BSK_SAg is a cell-based, multiplexed-readout assay that uses umbilical vein endothelium and peripheral blood mononuclear cells, a human vascular primary cell co-culture, with measurements taken at 24 hours after chemical dosing in a 96-well plate.BSK_SAg_Eselectin is an assay component measured in the BSK_SAg assay. It measures E-selectin antibody related to regulation of gene expression using ELISA technology.Data from the assay component BSK_SAg_Eselectin was analyzed into 1 assay endpoint. […]
Active and inactive are the calls of the source. The calls were made as follows: active = hit-call score of the fitted dose curve at least 0.9, where 1 is the maximum; inactive = score below 0.9.
Lab note: assign the record to one of 1.0 = active, 0.0 = inactive

Here's what some known entries look like.
Sc1nc2ccccc2s1; 0.0
CCCCCCCCCCC1CO1 (stereo not drawn); 1.0

Which result was noted for this molecule in the test: CCC(C)=NO 0.0

Which result was noted for this molecule in the test: COc1cc(CNC(=O)CCCC/C=C/C(C)C)ccc1O 0.0

Which result was noted for this molecule in the test: Cc1c(C(N)=O)cc([N+](=O)[O-])cc1[N+](=O)[O-] 0.0

Which result was noted for this molecule in the test: Cc1cccnc1 0.0

Which result was noted for this molecule in the test: CCCCCCCCCC/C=C/C1CC(=O)OC1=O (stereo not drawn) 0.0

Which result was noted for this molecule in the test: C1CN(CCOCCN2CCOCC2)CCO1 0.0

----------
Assay: CCTE_Shafer_MEA_acute_burst_number: CCTE's Neural Acute Assay for Single-Electrode Bursts, Shafer Lab (AID 2284013)
Calls of active or inactive are those of the source. How the source made its calls: active means hit-call score of the fitted dose curve at least 0.9, where 1 is the maximum; inactive means score below 0.9.
measurement.kind: AC50

Use these answered entries as a reference point.
CC1(C)S[C@@H]2[C@H](NC(=O)[C@H](N)c3ccc(O)cc3)C(=O)N2[C@H]1C(=O)O; inactive
COc1ccc(C(=O)c2ccccc2O)c(O)c1; 3 nM (active)
Cc1c(C(N)=O)cc([N+](=O)[O-])cc1[N+](=O)[O-]; inactive
CC1(C)S[C@@H]2[C@H](NC(=O)[C@H](N)c3ccccc3)C(=O)N2[C@H]1C(=O)O; inactive

For CCC[Si](OC(C)=O)(OC(C)=O)OC(C)=O , what is its reported AC50? 55.4 nM (active)

For CC[N+](CC)(CC(=O)Nc1c(C)cccc1C)Cc1ccccc1 (tested in a mixture with another compound) , what is its reported AC50? inactive

For CN(C)C(=O)C(CCN1CCC(O)(c2ccc(Cl)cc2)CC1)(c1ccccc1)c1ccccc1 , what is its reported AC50? 283 nM (active)

----------
Test: TOX21_p53_BLA_p4_viability: Viability Assessment in the Tox21 HCT-116 p53 Agonism Beta-lactamase Assay, Phase 4 (AID 2283597);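 also: hits lower the luminescence signal meaning cytotoxicity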
Results filed as inconclusive are left out. Calls of active or inactive are those of the source. The calls were made as follows: active = hit-call score of the fitted dose curve at least 0.9, where 1 is the maximum; inconclusive = response in the unintended direction; inactive = score below 0.9.
Lab note: assign the record to one of True (active), False (inactive)

Which result was noted for this molecule in the test: C=Cc1c(C)c2cc3[nH]c(cc4nc(cc5nc(cc1[nH]2)C(C)=C5CCC(=O)O)C(CCC(=O)O)=C4C)c(C)c3C=C False

Which result was noted for this molecule in the test: C[C@@H](O[C@H]1OCCN(Cc2n[nH]c(=O)[nH]2)[C@H]1c1ccc(F)cc1)c1cc(C(F)(F)F)cc(C(F)(F)F)c1 True

Which result was noted for this molecule in the test: Cc1cc(-n2c(=O)[nH]c(=O)n(C)c2=O)ccc1Oc1ccc(S(=O)(=O)C(F)(F)F)cc1 False

Which result was noted for this molecule in the test: CC1=C(CC(=O)O)c2cc(F)ccc2/C1=C\c1ccc(S(C)=O)cc1 (stereo not drawn) False

Which result was noted for this molecule in the test: CC(C(=O)O)c1ccc(N2Cc3ccccc3C2=O)cc1 (stereo not drawn) False

Which result was noted for this molecule in the test: CCCCNCCCC False

Which result was noted for this molecule in the test: Nc1nc(N)c2nc(-c3ccccc3)c(N)nc2n1 False

Which result was noted for this molecule in the test: CC(C)(C)c1ccc(C(=O)CCCN2CCC(OC(c3ccccc3)c3ccccc3)CC2)cc1 False

Which result was noted for this molecule in the test: CC1(C)Oc2ccc(C#N)cc2[C@@H](N2CCCC2=O)[C@@H]1O False

Which result was noted for this molecule in the test: O=C(O)CCCCCC(=O)O False

Which result was noted for this molecule in the test: Clc1cccc(Cl)c1NC1=NCCN1 False

Which result was noted for this molecule in the test: COc1ccc(-c2noc(CC(=O)O)c2-c2ccc(OC)cc2)cc1 False

Which result was noted for this molecule in the test: C[N+]1([O-])CCOCC1 False

----------
Test: TOX21_p53_BLA_p5_viability: Viability Assessment in the Tox21 HCT-116 p53 Agonism Beta-lactamase Assay, Phase 5 (AID 2283600)
Results filed as inconclusive are left out. Activity calls are given as the source filed them. Rule for the calls: active = hit-call score of the fitted dose curve at least 0.9, where 1 is the maximum; inconclusive = response in the unintended direction; inactive = score below 0.9.
measurement.kind: outcome

CCOC(=O)COc1ccc2c(C)c(CCN(CC)CC)c(=O)oc2c1Cl; inactive
CCn1cc(C(=O)O)c(=O)c2cc(F)c(N3CCNC(C)C3)c(F)c21 (stereo not given); inactive
N[C@H](CO)C(=O)O; inactive
CC/C=C\CC1=C(C)CCC1=O; inactive

For O=C(NOC[C@H](O)CO)c1ccc(F)c(F)c1Nc1ccc(I)cc1F , what is its reported outcome? inactive

For CC(C)C[C@H](NC(=O)[C@@H](COC(C)(C)C)NC(=O)[C@H](Cc1ccc(O)cc1)NC(=O)[C@H](CO)NC(=O)[C@H](Cc1c[nH]c2ccccc12)NC(=O)[C@H](Cc1cnc[nH]1)NC(=O)[C@@H]1CCC(=O)N1)C(=O)N[C@@H](CCCN=C(N)N)C(=O)N1CCC[C@H]1C(=O)NNC(N)=O , what is its reported outcome? inactive

For Clc1ccccc1-c1nc(-c2ccncc2)no1 , what is its reported outcome? inactive

For CCOC(=O)Oc1c(OC)cc(C(=O)O[C@@H]2C[C@@H]3CN4CCc5c([nH]c6cc(OC)ccc56)[C@H]4C[C@@H]3[C@H](C(=O)OC)[C@H]2OC)cc1OC , what is its reported outcome? inactive
